// provenance: ChEMBL document CHEMBL1201862

# Test system: CAKI-1
# methodDescription: NCI tumour cell line growth inhibition, 48 h
The source made the active and inactive calls. Rule as the data show it: active = GI50 up to about 1.1 µM and inactive = higher.
readoutKind: GI50

c1ccc2c(c1)Nc1ccccc1[P+]21c2ccccc2Nc2ccccc21: 1.61 µM (inactive)
Clc1ccccc1C(Nc1cnccn1)Nc1cnccn1: > 100 µM (inactive)
O=C(C1=C(C(=O)c2ccccc2)SC2(S1)C(C(=O)c1ccccc1)=C(C(=O)c1ccccc1)Sc1c2ssc1=O)c1ccccc1: > 100 µM (inactive)
C=CCC(CNC(=O)OCc1ccccc1)OC(=O)OCc1ccccc1 (centres undefined): > 100 µM (inactive)
CCOP(=O)(OCC)C(c1ccc(F)cc1)N(C(=O)NC(F)(F)F)c1ccc(OC)cc1 (centres undefined): > 100 µM (inactive)

Prompt line: Report the value of GI50 obtained on CAKI-1 for C=C=C(Sc1ccccc1)C(C)(C)OC(C)=O .
Response line: 34.9 µM (inactive)

Prompt line: Report the value of GI50 obtained on CAKI-1 for CC(C)(C)OC(=O)N1CCC2(C)CC(=O)CC=C12 (centres undefined) .
Response line: > 100 µM (inactive)

Prompt line: Report the value of GI50 obtained on CAKI-1 for CC(=O)O[C@H]1CCC2[C@@H]3CCC4Nc5c(cnn5-c5ccccc5)C[C@]4(C)C3CC[C@@]21C (some centres undefined) .
Response line: 3.2 µM (inactive)

Prompt line: Report the value of GI50 obtained on CAKI-1 for CC(C)[C@@H]1CC[C@@H](C)C[C@H]1OC(=O)/C=C1\C(C(=O)O[C@@H]2C[C@H](C)CC[C@H]2C(C)C)[C@H]2C=C[C@@H]1O2 (some centres undefined) .
Response line: > 100 µM (inactive)

Prompt line: Report the value of GI50 obtained on CAKI-1 for CCCCCCCCCCCCCCCCCCOCC(C[N+]1(C)CCC(O)CC1)OCC (centres undefined) .
Response line: 5.65 µM (inactive)

Prompt line: Report the value of GI50 obtained on CAKI-1 for Cc1cc(C)c2c(O)cc(-c3cccc4ccccc34)nc2n1 .
Response line: 2.07 µM (inactive)

Prompt line: Report the value of GI50 obtained on CAKI-1 for C=CCCCCNC(=O)C[C@@H]1C2=C(CC[C@H]1O[Si](C)(C)C(C)(C)C)N1C(=O)CCC/C=C\C1C2 (some centres undefined) .
Response line: 12.4 µM (inactive)

Prompt line: Report the value of GI50 obtained on CAKI-1 for CC1=C(/C(C)=N/NC(=O)c2ccccc2O)C(C)C(/C(C)=N/NC(=O)c2ccccc2O)=C(C)N1 .
Response line: 28.1 µM (inactive)

Prompt line: Report the value of GI50 obtained on CAKI-1 for O=C(c1ccco1)N(C(=S)N1CCN(c2ccccn2)CC1)C1CCCCC1 .
Response line: > 100 µM (inactive)

Prompt line: Report the value of GI50 obtained on CAKI-1 for CCOC(=O)CC1C(O)C(=O)N(C)C1c1ccccc1 (centres undefined) .
Response line: > 100 µM (inactive)

Prompt line: Report the value of GI50 obtained on CAKI-1 for NC(=O)CN(CC(N)=O)C(N)=O .
Response line: > 100 µM (inactive)

Prompt line: Report the value of GI50 obtained on CAKI-1 for O=C1CC(=O)NC(NN2C(=O)/C(=C/c3ccc(Cl)c(Cl)c3)N=C2c2ccccc2)=N1 .
Response line: 85.3 µM (inactive)

Prompt line: Report the value of GI50 obtained on CAKI-1 for CSC(SC)=C1C(=O)N(c2ccccc2)N=C1C .
Response line: 29 µM (inactive)

Prompt line: Report the value of GI50 obtained on CAKI-1 for C/C(CC(=O)CCC(=O)Nc1cccc(C(F)(F)F)c1)=N\NC(=O)NN .
Response line: > 100 µM (inactive)

Prompt line: Report the value of GI50 obtained on CAKI-1 for CCCCCCCCCCNCCSSCc1ccc(Cl)cc1 .
Response line: 2.18 µM (inactive)
